- Protocol details: protein stability index of a GFP-peptide fusion (GPS, HEK-293T) (PSI 1-6); higher = more stable;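 note: 24-mer peptide tiles fused after GFP, lentivirally expressed, FACS-sorted into six equal bins by GFP/DsRed ratio, decoded by Illumina sequencing, PSI is the read-weighted mean bin number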
- Measurement conditions: treatment: DMSO; c terminus: a fixed tail appended
Each entry below lists one item and its recorded protein stability index value.
Could you keep your reply to the number by itself?

Past entries and their recorded results:
{"Sequence record": "AHEVLQELRDISSMAMEYFDEKIV [FBXO28]", "Experimental endpoint": "protein stability index", "Readout number": 3.14}
{"Sequence record": "HTEVVRDLTFAPDGSLILVSASRD [WSB1]", "Experimental endpoint": "protein stability index", "Readout number": 3.45}
{"Sequence record": "PTGLLALQQIADFMTTNVPNVYPA [ADD1]", "Experimental endpoint": "protein stability index", "Readout number": 2.1}

Continue with the sequence presented below.
IN: Could you tell me which protein stability index is on file for QYQLLRCNVDLLKIIQLGLTFMNE [CNOT7] ?
OUT: 2.73

----------
- Protocol details: protein stability index of a GFP-peptide fusion (GPS, HEK-293T) (PSI 1-6); higher = more stable
- Measurement conditions: treatment: MLN4924 1 uM, 8 h; c terminus: a fixed tail appended
Outcome label depends on protein stability index relative to 4: at/above gives Y, below gives N.

{"Sequence record": "MEEFRRSYSRLCRESGAEPQEAVL [LRRC45]", "Class name": "N"}
{"Sequence record": "ESAGPSRAVRQSVTSFPDADAFHH [EMD]", "Class name": "Y"}
{"Sequence record": "QENEEKEQVANKGEPLALPLDAGE [BEX1]", "Class name": "Y"}
{"Sequence record": "DTYNDMATLFFNPQESAILQLFHQ [CLCN6]", "Class name": "N"}
{"Sequence record": "DTDKLLNSASDPSLKDGLSDSDSE [PSD2]", "Class name": "Y"}

Okay, now this sequence:
IN: Reported protein stability index reaches at least 4 for RTDLEMQIEGLNEELAYLKKNHEE [KRT15] ?
OUT: Y

----------
- Protocol details: protein stability index of a GFP-peptide fusion (GPS, HEK-293T) (PSI 1-6); higher = more stable
- Measurement conditions: treatment: DMSO; c terminus: a fixed tail appended
Classification scheme (protein stability index): class 0: < 3; class 1: ≥ 3 and < 4; class 2: ≥ 4

{"Sequence record": "APLSSRKHVLYVEHRHLNPDTELK [TCF25]", "Class name": "class 1"}
{"Sequence record": "AAVPGTQLSPSPTPASQSPKKPPA [SNAP91]", "Class name": "class 2"}
{"Sequence record": "PAGAGPSPTFPALGIGMDSCVIPL [SEPHS2]", "Class name": "class 1"}
{"Sequence record": "SGYHYGVWSCEGCKAFFKRSIQGH [ESR2]", "Class name": "class 0"}
{"Sequence record": "ELGQAVEVIYPQHSKLTDREKTNI [DENND6A]", "Class name": "class 1"}
{"Sequence record": "FMHSFEEKYGRAHPVFYQGTYSQA [FAF2]", "Class name": "class 0"}
{"Sequence record": "NVEDEAETKKVLGLQDTITAELVV [PALM]", "Class name": "class 2"}
{"Sequence record": "VTKITLESFLAWKKRKRQEKIDKL [ZC3H15]", "Class name": "class 0"}
{"Sequence record": "SACTVALHIFQLNEDGPSSENLEE [TRIP13]", "Class name": "class 1"}
{"Sequence record": "SALGRQRLQDISSLPLPQSLKNYL [SPSB4]", "Class name": "class 0"}

IN: Which protein stability index band matches YGHCTAGGEGVEVELLHNTSYTRQ [SCNN1D] ?
OUT: class 1

IN: // next record FEMKKGQCKDALEIYKRFLTRMTR [SNAP91]
OUT: class 0

----------
Each entry below lists one item and its recorded protein stability index value.
- Protocol details: protein stability index of a GFP-peptide fusion (GPS, HEK-293T) (PSI 1-6); higher = more stable
- Measurement conditions: treatment: MLN4924 1 uM, 8 h; c terminus: a fixed tail appended

Past entries and their recorded results:
{"Sequence record": "QAWFGFAGTPGYLSPEVLRKDPYG [CAMK2D]", "protein stability index": 2.94}
{"Sequence record": "YQSGGRLKRPVNVPFDIFTEEVKF [KCNA4]", "protein stability index": 2.8}
{"Sequence record": "EGVPSVFNPPPSRPLQVNTADHRI [FAF2]", "protein stability index": 4.5}
{"Sequence record": "PGSSSGPVLGSSSGAGHGSGSGSG [SPAG8]", "protein stability index": 5.14}
{"Sequence record": "PHPDLPAEEKEQLLHNDEYQETMV [USP39]", "protein stability index": 5.55}
{"Sequence record": "QCLEDLVNHYSEVADGLCCVLTTP [SLA]", "protein stability index": 2.27}
{"Sequence record": "ALARLGTVTVISPLELMRTKLQAQ [SLC25A39]", "protein stability index": 2.15}
{"Sequence record": "AREGSSEPWLPLTDGRSPRRSRDP [PLEKHN1]", "protein stability index": 5.1}

IN: Could you tell me which protein stability index is on file for LSTLAGIRVMVHGRNHTPFLGHHS [SCNN1D] ?
OUT: 2.64

IN: // next record RGPDNALLEATGGAAGRSHHLDED [KCTD10]
OUT: 5.42

IN: // next record LTFHRHPVAQSTDGIRGKVGHARG [SPSB4]
OUT: 3.97

IN: // next record ELNDRFANFIEKVRFLEQQNAALR [PRPH]
OUT: 2.71

IN: // next record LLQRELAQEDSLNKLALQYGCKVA [LYSMD4]
OUT: 2.52

----------
- Protocol details: protein stability index of a GFP-peptide fusion (GPS, HEK-293T) (PSI 1-6); higher = more stable
- Measurement conditions: treatment: DMSO; c terminus: a fixed tail appended
Experimental endpoint: protein stability index
Could you keep your reply to the number by itself?

{"Sequence record": "LAFKNDIQFWNSRQSLEGLSVRSV [CLPTM1]", "protein stability index": 2.45}
{"Sequence record": "VAEITKQLPPVVPVSKPGALRRSL [TCAP]", "protein stability index": 5.15}
{"Sequence record": "RKQRRRERWLQKQGKYSGVGLLDH [RNF180]", "protein stability index": 3.43}
{"Sequence record": "GTIRPVRCPSSSLHMSQRERTWPP [C22orf15]", "protein stability index": 3.77}

IN: Could you tell me which protein stability index is on file for ENQEKTEDQYEENSHLTSVPHWIN [ETS2] ?
OUT: 4.97

IN: // next record SSKSRAAPSPQEALVRLRETEEML [CHMP4C]
OUT: 2.79

IN: // next record MDIESLSVFTEPNRHFYREMQSFS [FBXO33]
OUT: 2.39

----------
- Protocol details: protein stability index of a GFP-peptide fusion (GPS, HEK-293T) (PSI 1-6); higher = more stable
- Measurement conditions: treatment: DMSO; c terminus: native
Experimental endpoint: protein stability index
Could you keep your reply to the number by itself?

{"Sequence record": "LETNQQHFHALCHSLLVSTHVPR [M1AP]", "protein stability index": 2.48}
{"Sequence record": "GLMTQSSLETHHYVDCGGNSTAI [TMEM106C]", "protein stability index": 3.18}

IN: Could you tell me which protein stability index is on file for CAPCPRRSEPVVQCQYPSGAEAG [IRX6] ?
OUT: 2.67

IN: // next record RGWLLTSGTDKVIKLWDMTPVVS [WDFY2]
OUT: 2.01

IN: // next record HSVLQGFIPLFQKFRLTGFRKTD [TMEM40]
OUT: 2.69

----------
- Protocol details: protein stability index of a GFP-peptide fusion (GPS, HEK-293T) (PSI 1-6); higher = more stable
- Measurement conditions: treatment: DMSO; c terminus: a fixed tail appended
Outcome label depends on protein stability index relative to 4: at/above gives Y, below gives N.

{"Sequence record": "SVRILGSLVAILLVFLITAILVKV [SLC29A1]", "Class name": "N"}
{"Sequence record": "GTFQVNFYHDHTKIIICSQNEEYL [PLK2]", "Class name": "N"}
{"Sequence record": "QENEEKEQVANKGEPLALPLDAGE [BEX1]", "Class name": "Y"}
{"Sequence record": "IVSNFNYFYHRETENEEQTQLTQN [KCNA4]", "Class name": "N"}

Okay, now this sequence:
IN: Reported protein stability index reaches at least 4 for HEVKCQGKPLAGIYRKREEKRNAG [KMT5A] ?
OUT: Y

----------
- Protocol details: protein stability index of a GFP-peptide fusion (GPS, HEK-293T) (PSI 1-6); higher = more stable
- Measurement conditions: treatment: DMSO; c terminus: a fixed tail appended
Classification scheme (protein stability index): low class (below 3), middle class (3 to below 4), high class (4 or more)

{"Sequence record": "HRWPPVWYLKEEDHYQRVKREREK [RHOBTB1]", "Class name": "middle class"}
{"Sequence record": "DTYNDMATLFFNPQESAILQLFHQ [CLCN6]", "Class name": "low class"}
{"Sequence record": "KDVKERFSGSLVAALSATGPRFLA [TMEM175]", "Class name": "low class"}
{"Sequence record": "WASCLQYDFDTQYAFVGDYSGQIT [WDFY1]", "Class name": "low class"}

IN: Which protein stability index band matches TQEKKRLSRTNEELLWKLQTGDPT [MTUS2] ?
OUT: high class

IN: // next record EIDLDSMRNLKASLENSLREVEAR [KRT18]
OUT: high class

IN: // next record PDPGPSPEASHLRFRRFRFQEAAG [ZNF263]
OUT: middle class

IN: // next record LMKESLQTGDLLSTFHTISPSFQL [PLAGL1]
OUT: low class
